Cited source: paper PMC9144807

System: PC3(+) xenografts
protocol summary: In vivo biodistribution in PC3(+) xenograft mice
Design: key: T:M = (%ID/g in tissue) / (%ID/g in muscle)
run parameters: 60 min; mean ± SE, n = 8–10
assay endpoint: Liver T:M
I only need the number, thanks.

Known Liver T:M results, listed for orientation:
molecule="O=C(O)CC[C@H](NC(=O)N[C@@H](CCCCNC(=O)CO/N=C\\c1ccc([18F])cc1)C(=O)O)C(=O)O [[^18F]1a, reference compound]" value_reported=35.7
molecule="O=C(O)CCC(NC(=O)NC(CCCCNC(=O)c1ccc([18F])nc1)C(=O)O)C(=O)O (centres unmarked) [[^18F]DCFPyL, reference compound]" value_reported=9.88
molecule="O=C(O)CC[C@H](NC(=O)N[C@@H](CCCCNC(=O)CO/N=C\\c1ccc([18F])nc1)C(=O)O)C(=O)O [[^18F]1b]" value_reported=24.9

O=C(O)CC[C@H](NC(=O)N[C@@H](CCCCNC(=O)CCCCCO/N=C\c1ccc([18F])cc1)C(=O)O)C(=O)O [[^18F]2a] has a reported Liver T:M of 66.9

Notebook: O=C(O)CC[C@H](NC(=O)N[C@@H](CCCCNC(=O)CCCCCO/N=C\c1ccc([18F])nc1)C(=O)O)C(=O)O [[^18F]2b] , Liver T:M read as 44.6

---

protocol summary: Fraction of intact tracer (parent) in blood and kidney by TLC
Format: in vivo, mice
run parameters: mouse, blood, intravenous; 15 min post-injection; mean ± SE; read-out: Blood uptake, parent (corrected for metabolites)
assay endpoint: tissue uptake at 0.25 h (%ID/g)
Numbers only here, please. The scale is %ID/g.

The recorded tissue uptake at 0.25 h for O=C(O)CC[C@H](NC(=O)N[C@@H](CCCCNC(=O)CCCCCO/N=C\c1ccc([18F])cc1)C(=O)O)C(=O)O [[^18F]2a] is 4.1

---

Tested on: PC3(+) xenografts
protocol summary: In vivo biodistribution in PC3(+) xenograft mice
Parameters: key: T:M = (%ID/g in tissue) / (%ID/g in muscle)
run parameters: 60 min; mean ± SE, n = 8–10
assay endpoint: Blood T:M
# output: bare number, no unit

Worked cases, answers included:
compound="O=C(O)CC[C@H](NC(=O)N[C@@H](CCCCNC(=O)CCCCCO/N=C\\c1ccc([18F])nc1)C(=O)O)C(=O)O [[^18F]2b]" system_name="PC3(+) xenografts" value_reported=2.04
compound="O=C(O)CC[C@H](NC(=O)N[C@@H](CCCCNC(=O)CCCCCO/N=C\\c1ccc([18F])cc1)C(=O)O)C(=O)O [[^18F]2a]" system_name="PC3(+) xenografts" value_reported=2.85
compound="O=C(O)CC[C@H](NC(=O)N[C@@H](CCCCNC(=O)CO/N=C\\c1ccc([18F])cc1)C(=O)O)C(=O)O [[^18F]1a, reference compound]" system_name="PC3(+) xenografts" value_reported=2.39
compound="O=C(O)CC[C@H](NC(=O)N[C@@H](CCCCNC(=O)CO/N=C\\c1ccc([18F])nc1)C(=O)O)C(=O)O [[^18F]1b]" system_name="PC3(+) xenografts" value_reported=2.26

Lab note: O=C(O)CCC(NC(=O)NC(CCCCNC(=O)c1ccc([18F])nc1)C(=O)O)C(=O)O (centres unmarked) [[^18F]DCFPyL, reference compound] gave Blood T:M of 2.29

---

Tested on: PC3(−) xenografts
protocol summary: In vivo biodistribution in PC3(−) xenograft mice (negative control)
run parameters: 60 min; mean ± SE, n = 8–10
assay endpoint: PC3(−) Tumor T:M
Give a plain numeric answer without units written out.

Worked cases, answers included:
molecule="O=C(O)CC[C@H](NC(=O)N[C@@H](CCCCNC(=O)CCCCCO/N=C\\c1ccc([18F])cc1)C(=O)O)C(=O)O [[^18F]2a]" value_reported=1.42
molecule="O=C(O)CC[C@H](NC(=O)N[C@@H](CCCCNC(=O)CO/N=C\\c1ccc([18F])nc1)C(=O)O)C(=O)O [[^18F]1b]" value_reported=1.43
molecule="O=C(O)CC[C@H](NC(=O)N[C@@H](CCCCNC(=O)CCCCCO/N=C\\c1ccc([18F])nc1)C(=O)O)C(=O)O [[^18F]2b]" value_reported=1.65
molecule="O=C(O)CC[C@H](NC(=O)N[C@@H](CCCCNC(=O)CO/N=C\\c1ccc([18F])cc1)C(=O)O)C(=O)O [[^18F]1a, reference compound]" value_reported=1.07

Proceeding to the next molecule to report its PC3(−) Tumor T:M.
PC3(−) Tumor T:M for O=C(O)CCC(NC(=O)NC(CCCCNC(=O)c1ccc([18F])nc1)C(=O)O)C(=O)O (centres unmarked) [[^18F]DCFPyL, reference compound] is 1.50

---

Tested on: PC3(+) xenografts
protocol summary: In vivo biodistribution in PC3(+) xenograft mice
Set-up: key: T:M = (%ID/g in tissue) / (%ID/g in muscle)
run parameters: 60 min; mean ± SE, n = 8–10
# strict inequality: Kidney T:M < 800 yields Fulfilled, everything else yields Not fulfilled

molecule="O=C(O)CC[C@H](NC(=O)N[C@@H](CCCCNC(=O)CCCCCO/N=C\\c1ccc([18F])cc1)C(=O)O)C(=O)O [[^18F]2a]" label_value=Fulfilled
molecule="O=C(O)CC[C@H](NC(=O)N[C@@H](CCCCNC(=O)CO/N=C\\c1ccc([18F])cc1)C(=O)O)C(=O)O [[^18F]1a, reference compound]" label_value=Fulfilled
molecule="O=C(O)CC[C@H](NC(=O)N[C@@H](CCCCNC(=O)CO/N=C\\c1ccc([18F])nc1)C(=O)O)C(=O)O [[^18F]1b]" label_value="Not fulfilled"

Now take the following molecule into account.
[ask] Hello, is Kidney T:M of the following molecule strictly smaller than 800? O=C(O)CCC(NC(=O)NC(CCCCNC(=O)c1ccc([18F])nc1)C(=O)O)C(=O)O (centres unmarked) [[^18F]DCFPyL, reference compound]
[reply] Fulfilled

---

protocol summary: Fraction of intact tracer (parent) in blood and kidney by TLC
Format: in vivo, mice
run parameters: mouse, blood, intravenous; 60 min post-injection; mean ± SE; read-out: Blood uptake, parent (corrected for metabolites)
assay endpoint: tissue uptake at 1 h (%ID/g)
Answer with a number only, understood to be in %ID/g.

Documented tissue uptake at 1 h of O=C(O)CCC(NC(=O)NC(CCCCNC(=O)c1ccc([18F])nc1)C(=O)O)C(=O)O (stereo not shown) [[^18F]DCFPyL, reference compound] : 0.26

---

protocol summary: Fraction of intact tracer (parent) in blood and kidney by TLC
Assay type: in vivo, mice
run parameters: mouse, blood, intravenous; 120 min post-injection; mean ± SE; read-out: Blood uptake, parent (corrected for metabolites)
assay endpoint: tissue uptake at 2 h (%ID/g)
A number alone suffices; assume %ID/g.

molecule="O=C(O)CC[C@H](NC(=O)N[C@@H](CCCCNC(=O)CCCCCO/N=C\\c1ccc([18F])cc1)C(=O)O)C(=O)O [[^18F]2a]" value_reported=0.31

We now examine a further molecule.
tissue uptake at 2 h reading for O=C(O)CCC(NC(=O)NC(CCCCNC(=O)c1ccc([18F])nc1)C(=O)O)C(=O)O (centres unmarked) [[^18F]DCFPyL, reference compound] : 0.045

---

# Kd per entry for PSMA (Homo sapiens)
Give the value in nM but do not write nM after it.

molecule="O=C(O)CC[C@H](NC(=O)N[C@@H](CCCCNC(=O)CO/N=C\\c1ccc([18F])nc1)C(=O)O)C(=O)O [[^18F]1b]" system_name="PSMA (Homo sapiens)" assay_endpoint=Kd value_reported=0.458
molecule="O=C(O)CC[C@H](NC(=O)N[C@@H](CCCCNC(=O)CCCCCO/N=C\\c1ccc([18F])cc1)C(=O)O)C(=O)O [[^18F]2a]" system_name="PSMA (Homo sapiens)" assay_endpoint=Kd value_reported=0.362
molecule="O=C(O)CC[C@H](NC(=O)N[C@@H](CCCCNC(=O)CO/N=C\\c1ccc([18F])cc1)C(=O)O)C(=O)O [[^18F]1a, reference compound]" system_name="PSMA (Homo sapiens)" assay_endpoint=Kd value_reported=0.238

Below: the item to evaluate.
# Kd of O=C(O)CC[C@H](NC(=O)N[C@@H](CCCCNC(=O)CCCCCO/N=C\c1ccc([18F])nc1)C(=O)O)C(=O)O [[^18F]2b] = 0.489

---

// reported tissue uptake at 2 h for each item listed
protocol summary: Fraction of intact tracer (parent) in blood and kidney by TLC
Assay type: in vivo, mice
run parameters: mouse, kidney, intravenous; 120 min post-injection; mean ± SE; read-out: Kidney uptake, parent (corrected for metabolites)
Response body: numeric value in %ID/g, unit text excluded.

compound="O=C(O)CC[C@H](NC(=O)N[C@@H](CCCCNC(=O)CCCCCO/N=C\\c1ccc([18F])cc1)C(=O)O)C(=O)O [[^18F]2a]" value_reported=13

Now, please, on to the next compound.
// field: tissue uptake at 2 h; key: O=C(O)CCC(NC(=O)NC(CCCCNC(=O)c1ccc([18F])nc1)C(=O)O)C(=O)O (centres unmarked) [[^18F]DCFPyL, reference compound] ; value = 3.41
